pIC50: −log10 of the molar value.
Below: molecules with pIC50 recorded for UniProt:P45452 in separate published works.

# annotated cases, reported pIC50 shown
molecule | result
O=C(O)c1c[nH]c2c(C(=O)NCc3ccc(F)cc3)ncnc12 | 4.70 to 7.00
Cc1[nH]c(C(=O)NCc2ccncc2)nc1-c1ccc2[nH]c(-c3nc(C4CC4)no3)cc2c1 | 8.22
O=C(O)[C@@H]1[C@@H](Cn2nnc3ccccc3c2=O)CC[C@H]1C(=O)c1ccc(OCC2CCOCC2)cc1 (stereo in doubt) | 7.31

For UniProt:P45452, give the measured pIC50 of the entry COCCOC(=O)N1CCN(S(=O)(=O)c2ccc(Oc3ccc(F)cc3)cc2)[C@@H](C(=O)NO)C1 > 7.30

For UniProt:P45452, give the measured pIC50 of the entry O=C(NO)[C@H]1CN(C(=O)c2ccc(-c3ccccc3)cc2)CCN1S(=O)(=O)c1cc(F)c(Oc2ccc(Cl)cc2)c(F)c1 6.00 to 7.30

For UniProt:P45452, give the measured pIC50 of the entry Cc1noc(-c2cc3cc(-c4nc(C(=O)NCc5cc(C)on5)[nH]c4C)ccc3[nH]2)n1 9.05

For UniProt:P45452, give the measured pIC50 of the entry Nc1c(N2CCc3ccc(CNC(=O)c4nc5sc6c(c5c(=O)[nH]4)CCS6)cc3C2)c(=O)c1=O > 7.00

For UniProt:P45452, give the measured pIC50 of the entry CNC(=O)[C@@H](NC(=O)c1ccc(-c2cccc(CNC(=O)C3CCCCC3)c2)o1)C(C)C 6.78

For UniProt:P45452, give the measured pIC50 of the entry COCCOC(=O)N1CCN(S(=O)(=O)c2ccc(Oc3ccc(Cl)cc3)c(F)c2)[C@@H](C(=O)NO)C1 > 7.30

For UniProt:P45452, give the measured pIC50 of the entry CC#CCOc1ccc(S(=O)(=O)C2(C(=O)NO)CCN(Cc3ccc(F)cc3)CC2)cc1 7.23

* * *

Below: molecules with pIC50 recorded for Collagenase 3 (Homo sapiens, UniProt P45452) in separate published works.
pIC50: −log10 of the molar value.
The threshold is inclusive: pIC50 of exactly 7 counts as Y; values below receive N.

Before answering, review these 5 worked examples.
molecule | classification
O=C1COc2c(F)cc(CNC(=O)c3nc4ccccc4c(=O)[nH]3)cc2N1 | Y
O=C1COc2ccc(CNC(=O)c3nc4sc5c(c4c(=O)[nH]3)CCC[S+]([O-])C5)cc2N1 (stereo not shown) | Y
O=C(O)[C@H]1[C@H](Cn2nnc3ccc(C(F)(F)F)cc3c2=O)CC[C@@H]1C(=O)c1cc2cc(OCCc3ccccc3)ccc2o1 (racemic) | N
O=C(NCc1ccc2c(c1)OCO2)c1nc2ccccc2c(=O)[nH]1 | Y
COC(=O)CN([C@@H](C(=O)NO)C(C)(C)C)S(=O)(=O)c1cccc(OC)c1 | N

Is it the case that CNC(=O)[C@@H](NC(=O)c1ccc(-c2cccc(CN)c2)o1)C1CCOCC1 has pIC50 reaching or exceeding 7? N

Is it the case that O=C(CC(CCn1nnc2ccccc2c1=O)C(=O)O)c1cc2cc(OCC3CCOCC3)ccc2o1 (racemic) has pIC50 reaching or exceeding 7? N

* * *

Below: compounds with pIC50 recorded for Collagenase 3 (Homo sapiens, UniProt P45452) in separate published works.
In simple prose, pIC50 is minus the logarithm base ten of a concentration in moles per litre.

# annotated cases, reported pIC50 shown
compound | studySystem | pIC50
CC(C)CC(C(=O)NO)N1C(=O)C(CC(=O)NCc2ccco2)[S+]([O-])C1c1ccc(Oc2ccc(Cl)cc2)cc1 (stereo not shown) | Collagenase 3 (Homo sapiens, UniProt P45452) | 7.77
O=C(O)[C@H]1[C@H](Cn2nnc3ccc(C(F)(F)F)cc3c2=O)CC[C@@H]1C(=O)c1ccc(OCc2cccc(C(F)(F)F)c2)cc1 (racemic) | Collagenase 3 (Homo sapiens, UniProt P45452) | 5.85

Next compound, please.
Using the record for CCCCOc1ccc(S(=O)(=O)C2(C(=O)NO)CCN(Cc3ccc(C#N)cc3)CC2)cc1 , state its measured pIC50. 8.96

* * *

Below: molecules with pIC50 recorded for Collagenase 3 (Homo sapiens, UniProt P45452) in separate published works.
In simple prose, pIC50 is minus the logarithm base ten of a concentration in moles per litre.

molecule | studySystem | pIC50
Cc1ccc2nnn(C[C@H]3CC[C@@H](C(=O)c4ccc(OCCC5CCOCC5)cc4)[C@@H]3C(=O)O)c(=O)c2c1 (single isomer, unassigned) | Collagenase 3 (Homo sapiens, UniProt P45452) | 6.77
CC#CCOc1cccc(S(=O)(=O)C2(C(=O)NO)CCN(Cc3ccccc3)CC2)c1 | Collagenase 3 (Homo sapiens, UniProt P45452) | 6.07
CC#CCOc1ccc(S(=O)(=O)C2(C(=O)NO)CCN(C(C)=O)CC2)cc1 | Collagenase 3 (Homo sapiens, UniProt P45452) | 6.87
COCC(C)NC(=O)[C@@H](NC(=O)c1ccc(-c2ccc(NC(=O)c3cc4ccccc4o3)cc2)o1)C1CCCCC1 (stereo partly shown) | Collagenase 3 (Homo sapiens, UniProt P45452) | 6.45
CCN(CC)c1ccc(CC2Sc3ccccc3N(CC(=O)NO)C2=O)cc1 (stereo not shown) | Collagenase 3 (Homo sapiens, UniProt P45452) | 5.32
CC(C)CCN([C@@H](C(=O)NO)C(C)(C)C)S(=O)(=O)c1cccc(NC(=O)NC(C)C)c1 | Collagenase 3 (Homo sapiens, UniProt P45452) | 5.92
CC#CCOc1ccc(S(=O)(=O)C2(C(=O)NO)CCN(C(=O)N3CCCC3)CC2)cc1 | Collagenase 3 (Homo sapiens, UniProt P45452) | 6.46

Next molecule, please.
Using the record for O=C(CC(CCn1nnc2ccccc2c1=O)C(=O)O)c1noc2cc(OCc3cccnc3)ccc12 (racemic) , state its measured pIC50. 6.30

* * *

Below: molecules with pIC50 recorded for Collagenase 3 (Homo sapiens, UniProt P45452) in separate published works.
In simple prose, pIC50 is minus the logarithm base ten of a concentration in moles per litre.

# annotated cases, reported pIC50 shown
molecule | studySystem | pIC50
CCC#CCOc1ccc(S(=O)(=O)C2(C(=O)NO)CCN(Cc3ccc(Br)cc3)CC2)cc1 | Collagenase 3 (Homo sapiens, UniProt P45452) | 6.74
CCCCCCOc1ccc(C(=O)[C@@H]2CC[C@H](Cn3nnc4ccc(C(F)(F)F)cc4c3=O)[C@H]2C(=O)O)cc1 (single isomer, unassigned) | Collagenase 3 (Homo sapiens, UniProt P45452) | 6.36
CNC(=O)[C@@H](NC(=O)c1ccc(-c2cccc(CNC(=O)c3cn4ccc(C)cc4n3)c2)o1)C1CCCCC1 | Collagenase 3 (Homo sapiens, UniProt P45452) | 6.86

For Collagenase 3 (Homo sapiens, UniProt P45452), give the measured pIC50 of the entry CNC(=O)[C@@H](NC(=O)c1ccc(-c2ccc(NS(C)(=O)=O)cc2)o1)C1CCCCC1 6.34

* * *

Below: compounds with pIC50 recorded for UniProtKB P45452 in separate published works.
In simple prose, pIC50 is minus the logarithm base ten of a concentration in moles per litre.

compound | pIC50
CCCCN1CC(C(=O)O)N(S(=O)(=O)c2ccc(-c3ccc(Br)cc3)cc2)CC1=O (centres unmarked) | 5.95
Cc1noc(-c2cc3cc(-c4nc(C(=O)NCc5ccnc(N)c5)[nH]c4C)ccc3[nH]2)n1 | 8.89
CNC(=O)[C@@H](NC(=O)c1ccc(-c2ccc(-c3ccncc3)cn2)o1)C(C)C | 7.21
CCCCCCCOc1ccc2cc(C(=O)CC(CCn3nnc4ccccc4c3=O)C(=O)O)oc2c1 (single isomer, unassigned; (+)) | 5.44

Using the record for CNC(=O)[C@@H](NC(=O)c1ccc(-c2ccc(NC(=O)c3cn(C)cn3)cc2)o1)C1CCCCC1 , state its measured pIC50. 6.85

* * *

Below: molecules with pIC50 recorded for Collagenase 3 (Homo sapiens, UniProt P45452) in separate published works.
In simple prose, pIC50 is minus the logarithm base ten of a concentration in moles per litre.

# annotated cases, reported pIC50 shown
molecule | pIC50
Cc1noc(-c2cc3cc(-c4nc(C(=O)NCc5ccno5)[nH]c4C)ccc3[nH]2)n1 | 9.15
COc1ccc(CC2Sc3ccccc3N([C@H](C(=O)NO)C(C)C)C2=O)cc1 (stereo partly drawn) | 6.17
Cc1cccn(CC2(c3ccccc3)NC(=O)NC2=O)c1=O (stereo not drawn) | 4.35

Next molecule, please.
Using the record for CNC(=O)[C@@H](NC(=O)c1ccc(-c2ccc(OCc3cc(C)n(C)n3)cn2)o1)C1CCCCC1 , state its measured pIC50. 8.40

* * *

Below: compounds with IC50 recorded for UniProt:P45452 in separate published works.
Just the number in nM, nothing appended.

# annotated cases, reported IC50 shown
compound | number
COc1ccc(/C=C2\Sc3ccc(C(F)(F)F)cc3N(CC(=O)NO)C2=O)cc1 | 36
Cc1ccc2nnn(C[C@@H]3CC[C@H](C(=O)c4ccc(OCc5cccc(OC(F)(F)F)c5)cc4)[C@H]3C(=O)O)c(=O)c2c1 (racemic) | 190
CCOC(=O)c1cc2cc(-c3cc(C(=O)NCc4ccc(=O)[nH]c4)nn3C)ccc2[nH]1 | 125
CC#CCOc1ccc(S(=O)(=O)CC2(C(=O)NO)CCN(C(=O)N(CC)CC)CC2)cc1 | 104
CNC(=O)[C@@H](NC(=O)c1ccc(-c2ccc(NC(=O)c3cccc(C)n3)cn2)o1)C1CCCCC1 | 7

Using the record for O=C(O)[C@@H]1[C@@H](Cn2nnc3ccc(C(F)(F)F)cc3c2=O)CC[C@H]1C(=O)c1ccc(SCC2CCOCC2)cc1 (single isomer, unassigned) , state its measured IC50. 220

Using the record for O=C(O)[C@H]1[C@H](Cn2nnc3ccccc3c2=O)CC[C@@H]1C(=O)c1ccc(OCc2ccccc2)cc1 (racemic) , state its measured IC50. 30
